# Tested on: LDL
# METHOD SUMMARY: LDL oxidation by copper, conjugated diene formation (OD 234 nm)
# Assay type: biochemical
# ASSAY CONTEXT: 10^−4 M; relative to copper alone
# Protocol: Oxidation of LDL is an important modification which plays a major role in the onset and development of atherosclerosis (Jurgens, Hoff et al. 1987). […] Unless otherwise indicated, all reagents were from Sigma (St Quentin, France). […] Before oxidation, EDTA was removed from the LDL preparation by dialysis. […] The formation of dienes, the species to be followed, was measured by the optical density at 234 nm in the samples treated with the compounds in the presence or absence of copper. […]
Please note: increase in the lag phase exactly at 40% is NOT MET. Only values below 40% get MET.

>  <MOLECULE>
CCCCCCCCCCCCCCSCC(=O)OCC(COC(=O)CSCCCCCCCCCCCCCC)OC(=O)CSCCCCCCCCCCCCCC

>  <CLASS ASSIGNMENT>
NOT MET

$$$$
>  <MOLECULE>
CCCCCCCCCCCCCCSCC(=O)OCC(O)CO (centres unmarked)

>  <CLASS ASSIGNMENT>
NOT MET

$$$$
>  <MOLECULE>
CCCCC/C=C\C/C=C\CCCCCCCC(=O)OCC(COC(=O)CCCCCCC/C=C\C/C=C\CCCCC)OC(=O)CSCCCCCCCCCCCCCC

>  <CLASS ASSIGNMENT>
NOT MET

$$$$
>  <MOLECULE>
CCCCCCCCCCCCCCCC(=O)OC(COC(=O)CSCCCCCCCCCCCCCC)COC(=O)CSCCCCCCCCCCCCCC

>  <CLASS ASSIGNMENT>
MET

$$$$

Now for another entry.
Threshold test, increase in the lag phase < 40%: CCCCCCCCCCCCCCCC(=O)OCC(COC(=O)CCCCCCCCCCCCCCC)OC(=O)CSCCCCCCCCCCCCCC
NOT MET
